# target-system: P2X3 (Homo sapiens)
# Sequence (P56373 1-397): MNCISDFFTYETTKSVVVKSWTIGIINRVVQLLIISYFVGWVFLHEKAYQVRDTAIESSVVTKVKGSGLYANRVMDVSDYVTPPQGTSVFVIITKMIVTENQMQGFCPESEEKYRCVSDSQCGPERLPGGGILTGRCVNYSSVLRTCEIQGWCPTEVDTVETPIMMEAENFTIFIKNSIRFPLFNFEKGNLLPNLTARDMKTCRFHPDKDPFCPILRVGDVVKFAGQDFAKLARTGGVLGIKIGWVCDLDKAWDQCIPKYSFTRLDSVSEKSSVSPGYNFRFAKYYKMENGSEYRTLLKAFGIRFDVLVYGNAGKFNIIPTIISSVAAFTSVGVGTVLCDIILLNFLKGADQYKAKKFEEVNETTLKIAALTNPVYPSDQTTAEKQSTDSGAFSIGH
# experiment-summary: P2X3 Antagonist Assay (FLIPR calcium, Fluo-8, HEK293 cells transfected with human ion channel cDNAs, αβ-meATP stimulation)
# assay-context: antagonist mode, αβ-meATP 3 μM
assay-metric: IC50

Asked: Give reported IC50 for `CNC(=O)c1cc(F)c(-c2nc3cc(OC)ccn3c2C[C@H]2CN(C(=O)OC)CCO2)c(F)c1` (P2X3 (Homo sapiens))
Given back: < 100 nM

Asked: Answer with IC50 of `CNC(=O)c1cc(F)c(-c2nc3cc(C(F)F)ccn3c2C[C@H]2CN(C(=O)OC)CCO2)c(F)c1` measured for P2X3 (Homo sapiens).
Given back: < 100 nM

Asked: Name the recorded IC50 of CNC(=O)c1cc(F)c(-c2nc3n(c2C[C@H]2CN(C(=O)OC)CCO2)CCC(C)C3)c(F)c1 (stereo partly drawn) , assay system P2X3 (Homo sapiens).
Given back: 100 to 1000 nM

More entries:
Asked: Report value: IC50, system: P2X3 (Homo sapiens), molecule: `CNC(=O)c1ccc(-c2nc3cc(C)ccn3c2C[C@H]2CN(C(=O)OC)CCO2)c(F)c1`
Given back: < 100 nM

Asked: Quote P2X3 (Homo sapiens) IC50 for entry `CNC(=O)c1cc(F)c(-c2cc3cc(C)ccc3n2C[C@H]2CN(C(=O)OC)CCO2)c(F)c1` .
Given back: 100 to 1000 nM

Asked: Lab note: P2X3 (Homo sapiens) assay, enter IC50 for `CNC(=O)c1cc(F)c(-c2nc3cc(C)ccn3c2C[C@H]2CN(C(=O)OC)CCO2)c(F)c1F` here
Given back: < 100 nM

----------
# target-system: P2X3 (Homo sapiens)
# experiment-summary: P2X3 Antagonist Assay (FLIPR calcium, Fluo-8, HEK293 cells transfected with human ion channel cDNAs, αβ-meATP stimulation)
# assay-context: antagonist mode, αβ-meATP 3 μM
assay-metric: IC50

Below: 6 compounds and their reported IC50.
Asked: Complete the entry with IC50 for COC(=O)N1CCO[C@@H](Cc2c(-c3ccc(C(=O)N(C)C)cc3F)nc3cc(Cl)ccn23)C1 [Compound A65]
Given back: 100 to 1000 nM

Asked: State its IC50 for this compound: CNC(=O)c1ccc(-c2nc3cc(C(O)C(F)(F)F)ccn3c2C[C@H]2CN(C(=O)OC)CCO2)c(F)c1 (single isomer, unassigned) [A46 (Peak 1)]
Given back: > 1000 nM

Asked: Let me know recorded IC50 for CNC(=O)c1cc(F)c(-c2nc3cc(C(F)(F)F)ccn3c2C[C@H]2CN(C(=O)OC)CCO2)c(F)c1 [Compound A5] , thanks.
Given back: 100 to 1000 nM

Asked: Give the value of IC50 reported for the following: CNC(=O)c1cc(F)c(-c2nc3cc(C)ccn3c2CC2CCCN(C(=O)OC)CC2)c(F)c1 (single isomer, unassigned) [A18 (Peak 2)]
Given back: 100 to 1000 nM

Asked: Tell me its IC50 given CNC(=O)c1cc(F)c(-c2nc3cc(Cl)ccn3c2C[C@H]2CN(C(=O)OC)CCO2)c(F)c1 [Compound A2] as the entry.
Given back: < 100 nM

Asked: Please list IC50 recorded for the compound CNC(=O)c1cc(F)c(-c2nc3cc(C)ccn3c2CC2CCCN(C(=O)OC)CC2)c(F)c1 (single isomer, unassigned) [A18 (Peak 1)]
Given back: < 100 nM

New cases:
Asked: Recall and state the measured IC50 for CNC(=O)c1cc(F)c(-c2nc3cc(C)ccn3c2CC2CCC(NC(C)=O)CC2)c(F)c1 (stereo not drawn) [trans-A21] .
Given back: > 1000 nM
